Cited source for all entries: PubChem BioAssay (Tox21)

- TARGET ENTITY: Cytochrome P450 2C9 (Homo sapiens) (UniProt P11712)
- Sequence (P11712 whole entry, looked up): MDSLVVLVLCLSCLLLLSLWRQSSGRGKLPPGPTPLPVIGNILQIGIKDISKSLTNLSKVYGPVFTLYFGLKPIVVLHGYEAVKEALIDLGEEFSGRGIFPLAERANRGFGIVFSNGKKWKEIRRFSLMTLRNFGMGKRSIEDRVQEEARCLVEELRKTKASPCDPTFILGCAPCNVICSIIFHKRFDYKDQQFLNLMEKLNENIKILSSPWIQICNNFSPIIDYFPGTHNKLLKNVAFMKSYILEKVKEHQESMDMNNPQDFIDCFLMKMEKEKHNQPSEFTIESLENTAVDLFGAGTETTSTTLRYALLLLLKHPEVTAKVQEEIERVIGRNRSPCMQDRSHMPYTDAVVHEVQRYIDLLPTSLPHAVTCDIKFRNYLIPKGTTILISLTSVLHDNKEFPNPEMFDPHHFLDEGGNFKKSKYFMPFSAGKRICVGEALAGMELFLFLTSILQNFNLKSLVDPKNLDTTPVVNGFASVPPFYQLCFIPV
- PROTOCOL DESCRIPTION: Cytochrome P450 Family 2 Subfamily C Member 9 (CYP2C9) small molecule antagonists: luciferase reporter qHTS assay (AID 1671198); further: nearly all actives have a fitted effect of over 50% in size
- SETTINGS: P450-Glo CYP2C9 enzyme assay, luciferin luminescence; series mostly up to 115 µM
Results filed as inconclusive are left out. The source made the active and inactive calls. The call rests on the fitted dose curve; in most records, active means well fitted inhibition curve with a large enough effect in the repeat runs; inconclusive means weak or mixed curves; inactive means no such curve, though single readings can be large or run the other way.
Select the matching outcome among active, inactive

Cc1ccc(C)c([N+](=O)[O-])c1    inactive
CC(N)CCCC(C)(C)O (stereo unspecified)    inactive
CCO    inactive
COC(=O)c1cccc(Cl)c1    inactive
CC(=O)Nc1ccc(OC(=O)c2ccccc2OC(C)=O)cc1    inactive

Short answer needed: outcome of this test for "CC(C)=CCC/C(C)=C/COC=O" ?
inactive

Call for entry O=C=NCC1CCCC(CN=C=O)C1 (stereo unspecified) :
active

What is the recorded call for this compound in the test? "CCOCCOCC"
inactive

----------
- PROTOCOL DESCRIPTION: qHTS assay to identify small molecule antagonists of the thyroid receptor (TR) signaling pathway - cell viability counter screen (AID 743064); further: nearly all actives have a fitted effect of over 50% in size
- SETTINGS: GH3.TRE-Luc viability, CellTiter-Fluor, 24 h; series mostly up to 70.3 µM
Results filed as inconclusive are left out. The source made the active and inactive calls. Calls come from the whole dose curve; as a rule, active = well fitted cell-killing curve with a large enough effect in the repeat runs; inconclusive = weak or mixed curves, or effect the other way; inactive = no such curve, though single readings can be large or run the other way.
The categories you may choose from are active, inactive

Cc1cc(-c2ccccc2)nnc1NCCN1CCOCC1    inactive
C=CCN1C[C@H](C(=O)N(CCCN(C)C)C(=O)NCC)C[C@@H]2c3cccc4[nH]cc(c34)C[C@H]21    active

Hey, what did the test say about OCC1CCC(CO)CC1 (stereo not drawn) ?
inactive

----------
- TARGET ENTITY: Cytochrome P450 2D6 (Homo sapiens)
- PROTOCOL DESCRIPTION: Cytochrome P450 Family 2 Subfamily D Member 6 (CYP2D6) small molecule antagonists: luciferase reporter qHTS assay (AID 1671196); further: nearly all actives have a fitted effect of over 50% in size
- SETTINGS: P450-Glo CYP2D6 enzyme assay, luciferin luminescence, 1 h; series mostly up to 115 µM
Results filed as inconclusive are left out. Calls of active or inactive are those of the source. Calls come from the whole dose curve; as a rule, active = well fitted inhibition curve with a large enough effect in the repeat runs; inconclusive = weak or mixed curves; inactive = no such curve, though single readings can be large or run the other way.
The categories you may choose from are 1.0 for active, 0.0 for inactive

Worked cases, answers included:
C=C(C)[C@@H]1CC=C(C)CC1    0.0
O=C(NCN1CCOCC1)c1cnccn1    0.0
O=C(O)CONC(=O)c1ccccc1    0.0

Look up the recorded call for "COC(=O)c1ccccc1C(=O)O" in this test.
0.0

Hi, do you know how "CC(=O)OCC(=O)Nc1cc(C#N)cc(NC(=O)COC(C)=O)c1Cl" came out in this test?
0.0

# fetch the recorded call for "CO/N=C(/C(=O)N[C@@H]1C(=O)N2C(C(=O)[O-])=C(C[n+]3ccn4ncccc43)CS[C@H]12)c1nsc(N)n1" here
0.0

----------
- TARGET ENTITY: Estrogen receptor (Homo sapiens) (UniProt P03372)
- Sequence (P03372 whole entry, looked up): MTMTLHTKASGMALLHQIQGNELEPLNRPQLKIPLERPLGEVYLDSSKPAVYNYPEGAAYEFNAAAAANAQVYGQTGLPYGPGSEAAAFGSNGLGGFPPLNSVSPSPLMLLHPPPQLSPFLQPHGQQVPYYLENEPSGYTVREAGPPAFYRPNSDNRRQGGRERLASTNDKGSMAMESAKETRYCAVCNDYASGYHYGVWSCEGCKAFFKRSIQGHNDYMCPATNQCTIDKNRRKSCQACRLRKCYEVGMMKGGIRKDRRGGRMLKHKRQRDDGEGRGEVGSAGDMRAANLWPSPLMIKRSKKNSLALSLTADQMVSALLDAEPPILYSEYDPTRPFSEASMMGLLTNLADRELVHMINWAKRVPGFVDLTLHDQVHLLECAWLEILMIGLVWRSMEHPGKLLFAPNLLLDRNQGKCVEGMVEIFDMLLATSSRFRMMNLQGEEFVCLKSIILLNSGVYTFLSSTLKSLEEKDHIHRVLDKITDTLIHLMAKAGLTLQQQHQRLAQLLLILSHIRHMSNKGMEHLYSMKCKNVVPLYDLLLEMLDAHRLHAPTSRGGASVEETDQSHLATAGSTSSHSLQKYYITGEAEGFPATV
- PROTOCOL DESCRIPTION: qHTS assay to identify small molecule agonists of the estrogen receptor alpha (ER-alpha) signaling pathway using the BG1 cell line (AID 743079); further: nearly all actives have a fitted effect of over 20% in size
- SETTINGS: BG1Luc4E2 cells, ERE-luciferase agonist, 22 h; series mostly up to 70.3 µM
Results filed as inconclusive are left out. The source made the active and inactive calls. Calls come from the whole dose curve; as a rule, active = well fitted activation curve with a large enough effect in the repeat runs; inconclusive = weak or mixed curves, or effect the other way; inactive = no such curve, though single readings can be large or run the other way.
# valid calls are Yes for active, No for inactive; nothing else

Below are worked cases with known answers.
CC(=O)C1C(=O)C=C(C)OC1=O (stereo not drawn)    No
O=C=NCC1CCCC(CN=C=O)C1 (stereo not drawn)    No
CCCCCCCCCCCCCCCCCCOCCO    No
CN(C)CCOC(=O)C(c1ccccc1)C1(O)CCCC1 (stereo not drawn)    No

Next item in the queue.
Called result for "CN(C)C(C)(C)CO"
Yes

----------
- TARGET ENTITY: Cytochrome P450 2C9 (Homo sapiens)
- PROTOCOL DESCRIPTION: Cytochrome P450 Family 2 Subfamily C Member 9 (CYP2C9) small molecule antagonists: luciferase reporter qHTS assay (AID 1671198); further: nearly all actives have a fitted effect of over 50% in size
- SETTINGS: P450-Glo CYP2C9 enzyme assay, luciferin luminescence; series mostly up to 115 µM
Results filed as inconclusive are left out. Active and inactive are the calls of the source. Calls follow the shape of the dose curve; as a rule, active = well fitted inhibition curve with a large enough effect in the repeat runs; inconclusive = weak or mixed curves; inactive = no such curve, though single readings can be large or run the other way.
Write down one outcome, taken from yes for active, no for inactive

CN(C)CCCO[C@@H]1[C@H]2OC(C)(C)O[C@H]2O[C@@H]1C(O)CO (stereo partly drawn)    no
COC(=O)c1cc(Cl)cc(Cl)c1    no
CC(S)C(C)S (stereo not drawn)    no
CCc1occc(=O)c1O    no
CC(=O)OC1CCCCC1C(C)(C)C (stereo not drawn)    no

Please state the recorded outcome for this compound: "CC(=O)O[C@H]1C[C@@H]2CC[C@@]1(C)C2(C)C"
no

Recorded test outcome, item "O=C1CCC(=O)N1Cl"
no

// outcome(item) with item = "O=NN(CCCl)C(=O)NC1CCCCC1"
no

Which outcome did this test record for the compound "OC[C@H]1O[C@@H](O[C@@H]2[C@@H](CO)O[C@](O)(CO)[C@H]2O)[C@H](O)[C@@H](O)[C@H]1O" ?
no

Give the logged outcome of this assay for the following compound: "CCCCOC(=O)[C@H](C)O"
no

Recorded test call requested for "N#CCC(=O)NN"
no

Would you mind telling me which call this test gave "CC(=O)OC(C)=O" ?
no

# lookup: test call for "c1ccc(B(c2ccccc2)c2ccccc2)cc1"
yes

Status in this test for CCCCCCC1(C)CCC(=O)O1 (stereo not drawn) ?
no

GET /call?item= "C/C=C(\C)C(C)=O" returns the recorded outcome of this test.
no

Outcome logged for "CC(=O)CC(=O)OC(C)(C)C" in this assay:
no

Just curious, what result did "C[Si]1(C)O[Si](C)(C)O[Si](C)(C)O[Si](C)(C)O[Si](C)(C)O1" get here?
no

// return assay outcome for "COc1c2occc2c(OC)c2c(=O)cc(C)oc12"
yes

How was "CC(C)=CCC[C@@](C)(O)[C@H]1CC=C(C)CC1" classified in this test?
yes

Test call for this compound, please: "CC(C)COC(=O)c1ccccc1"
no

Dear all, I need the recorded test outcome for "O=C1OCCO1" , thank you.
no

Each compound tested received a call. Report the one for "C/C(=C1\CCOC(=O)S1)N(C=O)Cc1cnc(C)nc1N" .
no

For "O=C(CCCCC(=O)Nc1c(I)cc(I)c(C(=O)O)c1I)Nc1c(I)cc(I)c(C(=O)O)c1I" , what call appears in the results of this test?
no

Which outcome was assigned to "Cc1ccc(C(=O)O)cc1[N+](=O)[O-]" in this test?
no

// return assay outcome for "CCCCCCCCCCCCCBr"
no

// param item: "c1ccc2cnccc2c1" ; yields the recorded call
no

# fetch the recorded call for "O=C(CCCl)NCCc1ccccc1" here
no

Each compound tested received a call. Report the one for "CC1(C)[C@H]2CC[C@](C)(C2)[C@H]1O" .
no

----------
- TARGET ENTITY: Cytochrome P450 2D6 (Homo sapiens)
- PROTOCOL DESCRIPTION: Cytochrome P450 Family 2 Subfamily D Member 6 (CYP2D6) small molecule antagonists: luciferase reporter qHTS assay (AID 1671196); further: nearly all actives have a fitted effect of over 50% in size
- SETTINGS: P450-Glo CYP2D6 enzyme assay, luciferin luminescence, 1 h; series mostly up to 115 µM
Inconclusive results are not listed. Active and inactive are the calls of the source. Calls come from the whole dose curve; as a rule, active = well fitted inhibition curve with a large enough effect in the repeat runs; inconclusive = weak or mixed curves; inactive = no such curve, though single readings can be large or run the other way.
Write down one outcome, taken from active, inactive

Cc1cc(-c2ccccc2)nnc1NCCN1CCOCC1    active
CCN1CCCC1CN (stereo not drawn)    inactive
OCC1CCC(CO)CC1 (stereo not drawn)    inactive
C/C(CC(C)C)=N\O    inactive
Cc1ccnc(N)c1    inactive
CCN(CC)CCN    inactive
C=CCSSCCC    active
CCOC(=O)CC1(C)OCC(C)O1 (stereo not drawn)    inactive
O=C(O)c1cc2ccccc2nc1C(=O)O    inactive
CN(C)CCCCl    inactive

Dear all, I need the recorded test outcome for CC(=O)C(C)O (stereo not drawn) , thank you.
inactive

# fetch the recorded call for "CCC[C@@H]1C[C@@H](C(=O)N[C@@H]([C@H]2O[C@H](SC)[C@H](O)[C@@H](O)[C@H]2O)[C@@H](C)O)N(C)C1" here
inactive

Each compound tested received a call. Report the one for "COC(=O)/C=C\C(=O)O" .
inactive
